- TARGET_OR_SYSTEM: PIK3CG (human) (UniProt P48736)
- Sequence (P48736 whole entry, looked up): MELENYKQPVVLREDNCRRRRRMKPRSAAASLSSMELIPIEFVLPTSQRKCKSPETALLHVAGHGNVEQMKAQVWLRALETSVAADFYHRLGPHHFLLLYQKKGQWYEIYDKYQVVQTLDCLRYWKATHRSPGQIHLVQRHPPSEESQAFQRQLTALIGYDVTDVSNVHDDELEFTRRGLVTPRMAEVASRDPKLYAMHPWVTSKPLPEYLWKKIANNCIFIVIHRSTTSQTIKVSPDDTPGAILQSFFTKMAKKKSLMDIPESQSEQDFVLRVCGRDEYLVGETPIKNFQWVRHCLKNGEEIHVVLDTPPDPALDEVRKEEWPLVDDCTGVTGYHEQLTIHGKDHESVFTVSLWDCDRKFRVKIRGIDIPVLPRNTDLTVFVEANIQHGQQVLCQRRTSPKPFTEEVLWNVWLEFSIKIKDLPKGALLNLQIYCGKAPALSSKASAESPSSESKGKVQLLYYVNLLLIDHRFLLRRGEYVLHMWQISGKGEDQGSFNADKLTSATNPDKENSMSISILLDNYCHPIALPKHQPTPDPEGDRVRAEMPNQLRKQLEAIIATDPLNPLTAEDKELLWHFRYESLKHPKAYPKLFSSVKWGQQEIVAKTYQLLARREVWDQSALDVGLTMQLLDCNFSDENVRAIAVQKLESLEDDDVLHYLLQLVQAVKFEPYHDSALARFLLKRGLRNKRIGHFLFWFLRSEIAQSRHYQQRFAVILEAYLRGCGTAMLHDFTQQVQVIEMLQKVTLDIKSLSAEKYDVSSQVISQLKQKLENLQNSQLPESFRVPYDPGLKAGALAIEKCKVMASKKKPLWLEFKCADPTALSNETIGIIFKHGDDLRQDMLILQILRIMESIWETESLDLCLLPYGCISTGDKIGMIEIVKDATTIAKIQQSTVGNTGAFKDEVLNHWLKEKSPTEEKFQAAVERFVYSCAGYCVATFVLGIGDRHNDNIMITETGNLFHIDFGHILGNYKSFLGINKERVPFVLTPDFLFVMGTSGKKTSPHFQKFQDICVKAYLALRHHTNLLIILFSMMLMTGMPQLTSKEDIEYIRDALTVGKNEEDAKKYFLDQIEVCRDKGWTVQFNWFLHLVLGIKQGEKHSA
- TEST_DETAILS: Assessment of PIK3CG Kinase Activity
pKi: −log10 of the molar value.
VALUE_KIND: pKi

Sample answers from the record:
>  <COMPOUND>
Cc1nc(NC(=O)CCNC(=O)c2ccccn2)sc1C#Cc1cccnc1

>  <pKi>
> 7.30

$$$$
>  <COMPOUND>
Cc1nc(NC(=O)NCCOc2ccccc2)sc1C#Cc1ccncc1

>  <pKi>
> 7.30

$$$$
>  <COMPOUND>
Cc1nc(NC(=O)NCCOCC2CC2)sc1C#Cc1cccnc1

>  <pKi>
> 7.30

$$$$
>  <COMPOUND>
Cc1nc(NC(=O)NC2COc3ccccc3C2)sc1C#Cc1ccncc1 (stereo unspecified)

>  <pKi>
6.60 to 7.30

$$$$
>  <COMPOUND>
CCCO[C@@H](C)CNC(=O)Nc1nc(C)c(C#Cc2cncc(OC)c2)s1

>  <pKi>
> 7.30

$$$$
>  <COMPOUND>
Cc1nc(NC(=O)NCC2CCCO2)sc1C#Cc1ccncc1 (stereo unspecified)

>  <pKi>
> 7.30

$$$$

The reported value for `CCc1ccc(CNC(=O)Nc2nc(C)c(C#Cc3ccncc3)s2)nc1` in terms of pKi is > 7.30

The reported value for `COc1ccc(C#Cc2sc(NC(=O)NCCOCC3CC3)nc2C)cc1OC` in terms of pKi is > 7.30

The reported value for `Cc1nc(NC(=O)NCCOCCN2CCOCC2)sc1C#Cc1ccncc1` in terms of pKi is 6.60 to 7.30

The reported value for `Cc1nc(NC(=O)NCCOCC2CC2)sc1C#Cc1ccnn1C` in terms of pKi is 6.60 to 7.30

The reported value for `CCOC(=O)[C@H]1CCC[C@H]1NC(=O)Nc1nc(C)c(C#Cc2ccncc2)s1` in terms of pKi is 6.60 to 7.30
